Data credit: patent US20140287419A1

Assay: 14C assay with IPTG-induced recombinant E. coli cells (14CO2 capture from [14C]-carboxyl-labeled dicamba)
Details: IPTG-induced recombinant E. coli cells; [14C]-carboxyl-labeled dicamba; 14CO2 capture
property_measured: Dicamba Decarboxylase Activity

29 (protein, listed as Pseudovibrio sp.) MAGRRDFLRKSVAAGVGLTAAAQLSAGGAQATVPDTSNIPLITLEEHFTTPELQSKNTSGDKRLFSGGGSRPELLDVGAGRIADMDEAGIDIQVLSTVTPGASKITGAEGVEFTRKFNTWIAEEVIAAYPNRFRAFATLPLSSPEAAADELERSVREYGFVGTMTYGPIDGKFLDHADYAPLLARAEALGVPIYIHPNWPSPTAMQAYYDGLGDDLTSRILSGPGYGWHQEIAVQCLRLIVGGVFDRFPNLQIVVGHMGEGLPFYYWRVGEDLDRIAQKRLQKPVQQYFHDNLWITTSAFFRDELLNLALATMGEDRVMFSVDYPMASAKVGADWLRAADIPLATKEKIGSKNAMKLLGIDKI | No
7 (protein, listed as Legionella pneumophila) MAIVDFETHFITEACIDYLTQRQEVPKLVPELNGAYTMCFTPDVSLFHTSALMEELLSLNEQRLAIMDQAGVTIQVLSLTTINGIDSCPGDENKSTALAREVNDQLYSAIQRHPERFKGFASISPYDVKEGVKELERAISQLGFVGWLTHSNFGEDNYLDDKTYWPLLEAAEGLNIPIYLHPNVPIMREFGKYGFALGGSALGFEFDTALCLMRMILGGVFDAFPKLKIMLGHLGETMPFLMERLDHLYRIPDLKAYRPSIQRIPSEVLRQNVYITTSGRFFVPALRYVLEVMGEDRVLFASDYPMESLLDATRFIQDSDLSNQTKQKIFSINAKNLNLI | No
89 (protein, listed as Erwinia billingiae) MATNRRDFLKNATAVMAGSTVFAGSSHFASAAAVEPAAVQPPRRIIALEEHFMLPEFVGYLHETQQNLRNGLVDKVVTPLSDFGKGRLEIMDKNGVDFAVLSLSGPGVQAEPDRVKAVRLARYANDKLATEMQKNPRRYGGFAHLAMQDPLAAANELERCVKQLHMQGGMINGETDGLYLDDRRYDVFWERVEALNVPIYIHPGNPPDYPHMFAGHPEMWGPVWSWAVETCSHALRLIFSGTFDRYPGARVILGHMGETLPIQLWRLDSRYQIANQTFAIKHPPSWYAKKNITITTSGVCNDAALRCALDSMGSENVMFSIDYPFESTEIAVNWLKTANITEQERNAVAWGNATSILRLGA | High
10 (protein, listed as Starkeya novella) MARKIALEEHFTTPELAGKYVARPTQSDALFADIERRLADFDELRLEMMDRAEIDLMVLSVTTPGVQGVRDTGEAIRLARGANDFLAREVQKRPSRYAGFAHLAMQDAEAAATELERAVRELGFRGALINGQTNGHYLDEDQYAPFWERVQELDVPVYLHPGNMADSPAMFAHRPELGGPIWAWTAETAAHALRLVFGGTFTRFPGAKVILGHMGETLPFLLWRLDSRREFDLGEKLAPDALPSAIIKRNIAVTTSGVCDPAPLVAALQALSDDNVMFSVDYPYEDPQLASKFIETAPIGEETRAKVCHGNAERLLGL | Low
